Tested on: Tov112D
Assay: Primary qHTS to identify gynecologic anti-cancer compounds using libraries of approved drugs and bioactive compounds (AID 1345084); further: on the % scale 0 is the no-effect control and ±100 the full control effect; nearly all actives have a fitted effect of over 55% in size
Settings: Gynecologic cancer cell panel viability, ATPlite luminescence, 48 h; series mostly up to 57.5 µM
Results filed as inconclusive are left out. Active and inactive are the calls of the source. The call rests on the fitted dose curve; in most records, active means well fitted cell-killing curve with a large enough effect; inconclusive means small, poorly fitted or top-dose-only effect, or effect the other way; inactive means flat fitted curve, though single readings scatter.
metric: outcome

C=C(C)C(=O)O[C@H]1CC2=CC(C/C(C)=C\[C@H]3OC(=O)C(=C)[C@H]13)OC2=O (stereo partly drawn) = inactive
CO[C@H]1C[C@@H]2CC[C@@H](C)[C@@](O)(O2)C(=O)C(=O)N2CCCC[C@H]2C(=O)O[C@H]([C@H](C)C[C@@H]2CC[C@@H](OP(C)(C)=O)[C@H](OC)C2)CC(=O)[C@H](C)/C=C(\C)[C@@H](O)[C@@H](OC)C(=O)[C@H](C)C[C@H](C)/C=C/C=C/C=C/1C = inactive
CC(C)CC1NC(=O)C(C)NC(=O)C(CC(C)C)OC(=O)CCCNC1=O (stereo not drawn) = inactive

###

System: Hek293T
Assay: Primary qHTS to identify gynecologic anti-cancer compounds using libraries of approved drugs and bioactive compounds (AID 1345084); further: on the % scale 0 is the no-effect control and ±100 the full control effect; nearly all actives have a fitted effect of over 55% in size
Details: Gynecologic cancer cell panel viability, ATPlite luminescence, 48 h, control line for the selectivity index; series mostly up to 57.5 µM
Inconclusive results are not listed. Activity calls are given as the source filed them. The call rests on the fitted dose curve; in most records, active means well fitted cell-killing curve with a large enough effect; inconclusive means small, poorly fitted or top-dose-only effect, or effect the other way; inactive means flat fitted curve, though single readings scatter.
metric: outcome

COC(=O)c1c(C)cc(OC(=O)c2c(C)cc(OC)cc2OC)cc1O[C@@H]1O[C@H](CO)[C@@H](O)[C@H](O)[C@H]1O = inactive
COc1cc2c3c(cc4ccccc4c3c1O)NC2=O = inactive
C=C1C(O)CC2C(C(=O)O)=COC(O[C@@H]3O[C@H](COC(=O)/C=C/c4ccc(O)cc4)[C@@H](O)[C@H](O)[C@H]3O)C12 (stereo not given in full) = inactive
C[C@H](NC(c1cccc2[nH]c(=O)c(=O)[nH]c12)P(=O)(O)O)c1ccc(Br)cc1 (stereo not given in full) = inactive

Entry under test: COC(=O)N(C)c1c(N)nc(-c2nn(Cc3ccccc3F)c3ncccc23)nc1N . Its outcome was inactive

###

System: CRL-7250
Experiment: Cytotoxic Profiling of Annotated Libraries Using Quantitative High-Throughput Screening (AID 1296008); further: on the % scale 0 is the no-effect control and ±100 the full control effect; nearly all actives have a fitted effect of over 60% in size
Conditions: Five cell lines viability, CellTiter-Glo ATP luminescence, 48-72 h; active compounds read low
Results filed as inconclusive are left out.
Give max response for every item shown.
Answers are plain numbers, in %.

Worked cases, answers included:
CC1=CC(=O)[C@H]2C(C)(C)CCC[C@]2(C)[C@@]1(O)CO = -8.81
C[S+](CC[C@H](N)C(=O)[O-])C[C@H]1O[C@@H](n2cnc3c(N)ncnc32)[C@H](O)[C@@H]1O (some centres not stated) = -13.4
C/C1=C\C[C@]2(C)C(=O)C(O)=C([C@H](C)CO)[C@H]2C/C=C(\C)[C@@H](O)CC/C(C)=C/CC1 = 3.52

Each compound below has a reported value. Please supply its max response.
1. O=C(/C=C/c1ccc(O)cc1)OC1[C@H](O)CC(O)(C(=O)O)C[C@H]1O (some centres not stated)
2. OC[C@H]1O[C@@H](OC[C@H]2O[C@@H](OC/C=C/c3ccccc3)[C@H](O)[C@@H](O)[C@@H]2O)[C@@H](O)[C@@H]1O
3. CC(C)(O)/C=C/C1=CC(=O)[C@@](C)(O)C[C@H]1O
4. CC(=O)OC[C@@]12C(=O)C[C@@H](C)[C@]3(C[C@@H](c4ccoc4)O[C@H]3OC(C)=O)[C@H]1CCC[C@]21CO1
5. O=C(O)Cc1ccc2oc(-c3ccc(NC(=O)/C=C/c4ccc(Br)cc4)c(F)c3)nc2c1
6. CC(C)/C=C1\NC(=O)C(C(C)C)n2c1nc1c(c2=O)C=CC=CO1 (configuration not stated)
7. CCOC(=O)C(CCc1ccccc1)NC(C)C(=O)N1C(=O)N(C)CC1C(=O)O (configuration not stated)

[-9.1, 0.699, -5.51, -15.6, 4.13, -11.8, 3.58]

Each compound below has a reported value. Please supply its max response.
1. C/C=C1\[C@H](O[C@@H]2O[C@H](CO)[C@@H](O)[C@H](O)[C@H]2O)OC=C2C(=O)OCCc3ccc(O)c(c3)Oc3ccc(cc3)CCOC(=O)C[C@H]21
2. O=C(NCc1ccccn1)Nc1nnc(-c2ccco2)o1
3. COc1cc(Br)c(S(=O)(=O)Nc2ccc(C(F)(F)F)c(O[C@@H]3CCN(C)C3)c2)cc1OC

1. -21.9
2. 0.451
3. -0.0326

Each compound below has a reported value. Please supply its max response.
1. C/C=C(\C)C(=O)O[C@@H]1CC2[C@@H](CC=C3C[C@@H](O[C@H]4C[C@H](OC)[C@H](O[C@H]5C[C@H](OC)[C@H](O[C@@H]6O[C@H](C)[C@@H](O[C@H]7C[C@H](OC)[C@H](O[C@@H]8O[C@H](CO)[C@@H](O)[C@H](O)[C@H]8O)[C@@H](C)O7)[C@H](OC)[C@H]6O)[C@@H](C)O5)[C@@H](C)O4)CC[C@@]32C)[C@@]2(O)CC[C@H](C(C)=O)[C@@]12C (some centres not stated)
2. CC(C)=CCC[C@](C)(O[C@@H]1O[C@H](CO[C@@H]2O[C@H](CO)[C@@H](O)[C@H](O)[C@H]2O)[C@@H](O)[C@H](O)[C@H]1O)C1CC[C@]2(C)[C@@H]1[C@H](O)CC1[C@@]3(C)CC[C@H](O[C@@H]4O[C@H](CO)[C@@H](O)[C@H](O)[C@H]4O[C@@H]4O[C@H](CO)[C@@H](O)[C@H](O)[C@H]4O)C(C)(C)[C@@H]3CC[C@]12C (some centres not stated)
3. CC(C)CN(C[C@@H](O)[C@H](Cc1ccccc1)NC(=O)O[C@@H]1CO[C@H]2OCC[C@H]21)S(=O)(=O)c1ccc(N)cc1
4. CC(C)(C)c1ccc(S(=O)(=O)Nc2ccc(Cl)cc2C(=O)c2cc[n+]([O-])cc2)cc1
5. CC1(C)CCC2(C(=O)OC3OCC(O)C(O)C3O)CCC3(C)C(=CCC4C5(C)CC(O)C(OC6OC(COC7OCC(O)C(O)C7O)C(O)C(O)C6O)C(C)(C)C5CCC43C)C2C1 (configuration not stated)
6. CC1(C)CC[C@]2(C(=O)O[C@@H]3O[C@H](CO)[C@@H](O)[C@H](O)[C@H]3O)CC[C@]3(C)C(=CCC4[C@@]5(C)CC[C@H](O[C@@H]6O[C@H](C(=O)O)[C@@H](O)[C@H](O)[C@H]6O)[C@@](C)(CO)C5CC[C@]43C)C2C1 (some centres not stated)

1. 3.18
2. -3.43
3. 4.36
4. -19.6
5. 1.81
6. 1.86

Each compound below has a reported value. Please supply its max response.
1. O=C(O)c1cccc(S(=O)(=O)N2CCc3ccccc3C2)c1
2. OC[C@H]1O[C@@H](Oc2cc(O)c3c(c2)O[C@@H](c2ccc(O)cc2)[C@H](O)C3)[C@H](O)[C@@H](O)[C@@H]1O

1: 0.0752; 2: -1.22
